# credit: patent US20240218063A1

Biological target: T1, human DLL3 on DLL3 expressing cancer cell lines (human, UniProt Q9NYJ7 27-618)
T1 sequence: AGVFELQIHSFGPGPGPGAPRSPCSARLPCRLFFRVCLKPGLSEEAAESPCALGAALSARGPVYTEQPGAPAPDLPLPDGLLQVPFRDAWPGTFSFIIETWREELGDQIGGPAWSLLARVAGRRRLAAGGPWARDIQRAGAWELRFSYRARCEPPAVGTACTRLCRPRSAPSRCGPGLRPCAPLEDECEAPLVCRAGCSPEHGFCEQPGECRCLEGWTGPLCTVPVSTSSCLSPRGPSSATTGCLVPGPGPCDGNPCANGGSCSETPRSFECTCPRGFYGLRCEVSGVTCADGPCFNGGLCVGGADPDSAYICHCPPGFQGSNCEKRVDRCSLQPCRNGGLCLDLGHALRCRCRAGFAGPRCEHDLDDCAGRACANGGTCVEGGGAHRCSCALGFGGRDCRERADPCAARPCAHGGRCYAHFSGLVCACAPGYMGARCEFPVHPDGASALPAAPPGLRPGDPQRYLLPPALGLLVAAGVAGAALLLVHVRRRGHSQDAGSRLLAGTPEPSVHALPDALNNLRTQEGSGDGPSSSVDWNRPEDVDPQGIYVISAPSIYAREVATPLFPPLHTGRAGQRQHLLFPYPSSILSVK
Experiment: cell-based or functional assay
endpoint: TDCC EC50, CHO expressed purified protein (nM)

binder	readout-number
anti-DLL3 trispecific protein 2H02 (other, not shown: small tags and cut ends) EVQLVESGGGLVQPGGSLTLSCVASGSTSSINAMAWYRRAPGKQRELAAGISSDGSKVYADSVKGRFTISRDNAKNSVYLQMNSLRAEDTAVYYCYYFHTVSGSSMRYWGQGTLVTVSS	0.096
anti-DLL3 trispecific protein 1A011 (other, not shown: small tags and cut ends) EVQLVESGGGLVQPGGSLTLSCVASGSTSSINAIGWYRRAPGKQRELVAGISSDGSKVYIDSVKGRFTISRDNAKNSVYLQMNSLRAEDTAVYYCYYFRTVSGSSYRYWGQGTLVTVSS	0.17
anti-DLL3 trispecific protein 2E02 (other, not shown: small tags and cut ends) EVQLVESGGGLVQPGGSLTLSCVASGSTSAINAMGWYRRAPGKQRELVAGISSDGSKVYVDSVKGRFTISRDNAKNSVYLQMNSLRAEDTAVYYCYYFRTVSGSSQRYWGQGTLVTVSS	0.12
anti-DLL3 trispecific protein 2C04 (other, not shown: small tags and cut ends) EVQLVESGGGLVQPGGSLTLSCVASGSTSSRNAMGWYRRAPGKQRELVAGISSDGSKLYADSVKGRFTISRDNAKNSVYLQMNSLRAEDTAVYYCYYFRTVLGSSMRYWGQGTLVTVSS	0.043
